Reference source for all entries: PubChem BioAssay (Tox21)

- experiment.description: qHTS assay for identifying genotoxic compounds that show differential cytotoxicity against isogenic chicken DT40 cell lines with known DNA damage response pathways - Rad54/Ku70 mutant cell line (AID 743015); note: nearly all actives have a fitted effect of over 60% in size; note: potency is the fitted concentration of half-maximal effect
- details: DT40 Rad54/Ku70 mutant viability, CellTiter-Glo, 40 h; series mostly up to 66.8 µM
Results filed as inconclusive are left out. The source made the active and inactive calls. Calls come from the whole dose curve; as a rule, active = well fitted cell-killing curve with a large enough effect in the repeat runs; inconclusive = weak or mixed curves; inactive = no such curve, though single readings can be large or run the other way.
measured.metric: Potency

compound	endpoint.value
C=CCOc1ccc(CC(=O)O)cc1Cl	inactive
CCCCCCC(=O)O[C@H]1CC[C@H]2[C@@H]3CCc4cc(O)ccc4[C@H]3CC[C@]12C	inactive
Cn1nnnc1SCC1=C(C(=O)O)N2C(=O)[C@@H](NC(=O)[C@H](O)c3ccccc3)[C@H]2SC1	inactive
CC[N+](C)(C)Cc1ccccc1Br	inactive

I need Potency for every entry listed below, if you could help.
1. Cc1cccc(C)c1NC(=O)NC1=CCCN1C
2. CCCC1C(=O)N2C(N(C)C)=Nc3ccc(C)cc3N2C1=O (stereo unspecified)
3. CCCCCCCCCCCCCCCCOCCOCCOCCOCCOCCOCCOCCOCCOCCOCCOCCOCCOCCOCCOCCOCCOCCOCCOCCOCCO
4. CC[C@H]1OC(=O)[C@H](C)[C@@H](O[C@H]2C[C@@](C)(OC)[C@@H](O)[C@H](C)O2)[C@H](C)[C@@H](O[C@@H]2O[C@H](C)C[C@H](N(C)C)[C@H]2O)[C@](C)(O)C[C@@H](C)[C@@H]2N[C@@H](COCCOC)O[C@@H]([C@H]2C)[C@]1(C)O
5. N#Cc1ccc2c(c1)N(CCCN1CCC(O)CC1)c1ccccc1S2
6. O=C1/C(=C\c2cccs2)CCC/C1=C\c1cccs1
7. CCOC(=O)Cc1cccc(-c2cc(CCCCCCc3ccc(O[C@H]4O[C@H](COC(C)=O)[C@@H](OC(C)=O)[C@H](OC(C)=O)[C@@H]4OC(C)=O)c(-c4cccc(CC(=O)OCC)c4)c3)ccc2O[C@H]2O[C@H](COC(C)=O)[C@@H](OC(C)=O)[C@H](OC(C)=O)[C@@H]2OC(C)=O)c1

inactive
inactive
29.8 µM (active)
inactive
21.1 µM (active)
29.8 µM (active)
inactive

Quick request: Potency for each listed item, please.
1. CCOC(=O)Oc1c(OC)cc(C(=O)O[C@@H]2C[C@@H]3CN4CCc5c([nH]c6cc(OC)ccc56)[C@H]4C[C@@H]3[C@H](C(=O)OC)[C@H]2OC)cc1OC
2. CC(=O)[C@@]1(O)CC[C@H]2[C@@H]3C=C(Cl)C4=CC(=O)CC[C@]4(C)[C@H]3CC[C@@]21C
3. c1ccc2cc(C3=NCCN3)ccc2c1
4. CO/N=C(\C(=O)N[C@@H]1C(=O)N2C(C(=O)O)=C(CSC(=O)c3ccco3)CS[C@H]12)c1csc(N)n1
5. CCCCC(=O)O[C@H]1CC[C@H]2[C@@H]3CCc4cc(O)ccc4[C@H]3CC[C@]12C

12.7 µM (active)
23.7 µM (active)
18.8 µM (active)
inactive
16.8 µM (active)
